# literature pull: UniProtKB P07949 IC50

See these solved cases before continuing.
INSERT INTO assay_data (molecule, observed_result) VALUES
  ('CCOc1cc(-c2ccc(NC(=O)Nc3ccc(OC4CC(F)(F)C4)c(C(F)(F)F)c3)c(F)c2)c[nH]c1=O', '< 100 nM'),
  ('COc1ccc(OC)c(-c2ccc3ncc4ncn(-c5ccccc5F)c4c3c2)c1', '500 to 1000 nM'),
  ('Cn1cc(-c2cc(-c3ccc(N4C[C@@H]5C[C@](C)(NC(=O)c6ncccc6Cl)C[C@@H]5C4)nc3)c3c(C#N)cnn3c2)cn1', '≤ 10 nM');

IN: For CCOc1cc(-c2ccc(NC(=O)Nc3ccc(OC(C)(C)CF)c(C(F)(F)F)c3)c(F)c2)c[nH]c1=O , what is its reported IC50?
OUT: < 100 nM

IN: Same again, this time with CC(=O)Nc1cccc(-c2ccnc3[nH]cc(C(=O)c4cccc(Cl)c4Cl)c23)c1
OUT: ≤ 10000 nM
